B1: VH:VL chains; a variant is named by its letters at X, in order (parent)
chain 1: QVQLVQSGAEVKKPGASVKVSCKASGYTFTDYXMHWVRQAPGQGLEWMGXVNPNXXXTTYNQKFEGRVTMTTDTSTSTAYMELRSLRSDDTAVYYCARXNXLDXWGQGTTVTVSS
chain 2: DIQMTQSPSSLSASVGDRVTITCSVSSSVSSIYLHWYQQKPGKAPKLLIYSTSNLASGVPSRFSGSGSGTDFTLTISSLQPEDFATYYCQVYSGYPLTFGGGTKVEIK

Variants of: B1
method-description: yeast display scFab, FACS + sequencing
condition-notes: with MET
The other results are listed elsewhere or left out. No count for the full screen is at hand.
property-label: antigen binding call

Example variants with recorded antigen binding call:
>>> df
   mutation_string      result
0         VGRTSFGF  no binding
1         VGAEDDVA  no binding
2         YRGGDAAF       binds
3         DATGGDVF  no binding
4         ARGRDAWV  no binding
5         YRGGAAWY       binds
6         VRAGGFGA       binds
7         DAGKGAVY  no binding
8         FKKRGAWS       binds
9         FRTRSSLA       binds

Per the records, this variant ( YKRGAAWS ) has antigen binding call equal to binds

GET /value?item= VKGKGAAF &field=antigen binding call returns no binding

The recorded antigen binding call for FTGEDDVY is no binding
